Target Entity: GII.17 VLP
Protocol Text: KD value by bio-layer interferometry (BLI, BLItz), peptide on SA chip, GII.17 VLP
Format: binding, norovirus GII.17 Saitama strain
Condition Label: GII.17 VLP 1 and 0.1 mg/mL; 100 μM peptide bound to SA chip; KD calculated from Ka and Kd values
pKd: −log10 of the molar value.
Parameter threshold = 6. Response is 1 when pKd meets or exceeds it, else -1.

{"columns": ["Sequence Content", "Target Entity", "Class Label"],
 "data": [
  ["YRRSKSEIFV [No. 59]", "GII.17 VLP", 1],
  ["YVIRNSDRHN [No. 43]", "GII.17 VLP", -1],
  ["ECMGRRWMSS [No. 154]", "GII.17 VLP", 1],
  ["KYRATICHTV [No. 52]", "GII.17 VLP", 1]
]}

Confirm if pKd reported for the sequence VCVDNDISMS [No. 150] is 6 or above.
-1

API: above_or_equal(metric=pKd, cutoff=6) for item ICSSWFPSVH [No. 48]
1

Is pKd for VVGFGRRSLF [No. 156] at or above 6?
-1

====

Tested on: GII.3 VLP
Protocol Text: KD value by bio-layer interferometry (BLI, BLItz), peptide on SA chip, GII.3 VLP
Type: binding, norovirus GII.3 TCH strain
Condition Label: GII.3 VLP; association 90 sec
The label True is reserved for ka strictly under 30000 M⁻¹ s⁻¹; False covers values equal to or above it.

Consider the following illustrative entries.
{"columns": ["Sequence Content", "Class Label"],
 "data": [
  ["ECMGRRWMSS [No. 154]", "False"],
  ["SVMVTRSLFG [No. 163]", "False"],
  ["YRRSKSEIFV [No. 59]", "False"],
  ["KYRATICHTV [No. 52]", "False"],
  ["ICSSWFPSVH [No. 48]", "False"],
  ["VELFLLTSSC [No. 155]", "True"],
  ["YVIRNSDRHN [No. 43]", "False"],
  ["GCVGDLYCSA [No. 172]", "True"],
  ["YVVASKSNRL [No. 143]", "False"],
  ["VVGFGRRSLF [No. 156]", "False"]
]}

Say whether its ka is strictly beneath 30000 M⁻¹ s⁻¹. Entry: VCVDNDISMS [No. 150]
True

Could you please tell me whether ka recorded for NFRVPIRFTH [No. 131] is less than 30000 M⁻¹ s⁻¹?
True

====

Target Entity: GII.3 VLP
Protocol Text: KD value by bio-layer interferometry (BLI, BLItz), peptide on SA chip, GII.3 VLP
Type: binding, norovirus GII.3 TCH strain
Condition Label: GII.3 VLP; dissociation in PBS 60 sec
Recorded kd by entry
Express it in s⁻¹; write the number only.

Use the examples below as a reference point.
{"columns": ["Sequence Content", "Unit Name", "kd"],
 "data": [
  ["VVGFGRRSLF [No. 156]", "s⁻¹", 0.0713],
  ["KYRATICHTV [No. 52]", "s⁻¹", 0.0103],
  ["VELFLLTSSC [No. 155]", "s⁻¹", 0.0926],
  ["ECMGRRWMSS [No. 154]", "s⁻¹", 0.0173],
  ["GCVGDLYCSA [No. 172]", "s⁻¹", 0.0131]
]}

Supply recorded kd for YVIRNSDRHN [No. 43] here.
0.0793

Query kd for ICSSWFPSVH [No. 48]
0.0246

Item NFRVPIRFTH [No. 131] : provide kd
0.262
